Target: T1, recombinant human IL22R1 (human IL22R ECD) (human, UniProt Q8N6P7 16-228, biotinylated in the ELISA of Table 4)
T1 construct: extracellular domain; also called hIL22R; human Interleukin 22 receptor
T1 sequence (looked up): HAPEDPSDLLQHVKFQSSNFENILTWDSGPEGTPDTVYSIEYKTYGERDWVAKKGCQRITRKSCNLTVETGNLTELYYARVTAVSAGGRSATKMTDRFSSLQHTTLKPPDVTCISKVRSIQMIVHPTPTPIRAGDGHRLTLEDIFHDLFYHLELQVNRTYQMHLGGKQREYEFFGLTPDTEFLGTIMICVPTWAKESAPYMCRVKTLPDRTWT
Test: Biacore, hIL22R
ASSAY METRIC: Kd (nM)
Report as a plain number; the unit nM is understood.

- 170B2 (antibody, V domains shown, Llama-derived parental clone; also called VH_170B2; VK_170B2) VH: EVQLVESGGGLVQPGGSLRLSCAASGFTFSSSWMYWVRQAPGKGLEFVSVINTRSGITHYVESVKGRFTISTDNAKNTLFLQMNSLKSEDTAVYYCATRIQGLIDYWGQGTQVTVSS VL: DIVMTQSPSSLSVSLGDRVTITCQASQSIGSVNALAWYQQKPGQSLKLLIHGASRLQTGVPSRFSGSGSGTSFTLAISGVEAEDLATYYCLQDYAWPLTFGQGTKVELK: 0.12
- 197D3 (antibody, V domains shown, Vkappa-shuffled clone of 170B2 (keeps the 170B2 VH-CH1); also called VK_197D3) VH: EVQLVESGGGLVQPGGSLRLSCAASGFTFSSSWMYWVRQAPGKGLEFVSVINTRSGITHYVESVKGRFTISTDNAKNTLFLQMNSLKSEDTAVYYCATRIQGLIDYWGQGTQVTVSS VL: DIQMTQSPSSLSASLGDRVTVTCQASQSIRSSLNWYQQKPGQAPKLLIYGASRLRIGVPSRFSGSASGTSFTLTISGVEAEDLATYYCLQEYAWPLTFGQGTKVELK: 0.089

Lab note: next binder to report on.
Please give the measured Kd for this binder: 197G10 (antibody, V domains shown, Vkappa-shuffled clone of 170B2 (keeps the 170B2 VH-CH1); also called VK_197G10) VH: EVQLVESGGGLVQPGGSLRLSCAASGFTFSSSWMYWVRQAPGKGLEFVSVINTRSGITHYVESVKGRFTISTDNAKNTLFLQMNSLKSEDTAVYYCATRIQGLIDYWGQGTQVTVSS VL: DIQMTQSPSSMSASLGDSVTISCQASENIGTQLFWYQQNAGQPPKLLIYGASRLQTGVPSRFSGSGSGTTFTLTISGVETGDLATYYCLQDYSWPLTFGQGTKVELK 0.29
